Tested on: α-isomaltosylglucosaccharide-forming enzyme from Bacillus globisporus N75
PROTOCOL: Action on saccharides (TLC before and after enzymatic reaction)
Type: biochemical
Parameters: key: −: it showed no change; +: it showed a slight reduction of the color spot of the substrate and the formation of other reaction product; ++: it showed a high reduction of the color spot of the substrate and the formationof other reaction product; +++: it showed a substantial disappearance of the substrate spot and the formation of other reaction product
DETAILS: two units/g substrate, substrate 2% (w/v), 30° C., pH 6.0, 24 hours
PROPERTY: Enzyme action, N75 enzyme

Consider the worked cases shown below.
OC[C@H]1O[C@H](OC[C@H]2O[C@H](O[C@H]3[C@H](O)[C@@H](O)C(O)O[C@@H]3CO)[C@H](O)[C@@H](O)[C@@H]2O)[C@H](O)[C@@H](O)[C@@H]1O (some centres unmarked) :: −
OC[C@H]1O[C@H](O[C@H]2[C@H](O)[C@@H](O)[C@@H](OC[C@H]3OC(O)[C@H](O)[C@@H](O)[C@@H]3O)O[C@@H]2CO)[C@H](O)[C@@H](O)[C@@H]1O (some centres unmarked) :: ++
OC[C@H]1O[C@@](CO)(O[C@H]2O[C@H](CO)[C@@H](O[C@H]3O[C@H](CO)[C@@H](O)[C@H](O)[C@H]3O)[C@H](O)[C@H]2O)[C@@H](O)[C@@H]1O :: +
OC[C@H]1O[C@H](O[C@H]2[C@H](O)[C@@H](O)[C@H](O)O[C@@H]2CO)[C@H](O)[C@@H](O)[C@@H]1O :: +

Now let's try a different one.
Entry OC[C@H]1O[C@H](O[C@H]2[C@H](O)[C@@H](CO)OC(O)[C@@H]2O)[C@H](O)[C@@H](O)[C@@H]1O (some centres unmarked) , Enzyme action, N75 enzyme reported as +

---

# Sugar composition of reaction mixture, substrate Mlatose values compiled below
System: polypeptide having α-isomaltosylglucosaccharide-forming enzyme activity, obtained in Experiment 1-3
PROTOCOL: Reaction product from maltooligosaccharide (sugar composition by HPLC)
Format: biochemical, Bacillus globisporus C11
Set-up: unit not given here
DETAILS: 1% (w/v) substrate, two units/g-solid, 35° C., pH 6.0, 8 hours
Please reply with the number alone, leaving off any unit.

OC[C@H]1O[C@H](OC[C@H]2O[C@H](O[C@H]3[C@H](O)[C@@H](O)[C@@H](O[C@H]4[C@H](O)[C@@H](O)[C@@H](O[C@H]5[C@H](O)[C@@H](O)[C@@H](O[C@H]6[C@H](O)[C@@H](O)C(O)O[C@@H]6CO)O[C@@H]5CO)O[C@@H]4CO)O[C@@H]3CO)[C@H](O)[C@@H](O)[C@@H]2O)[C@H](O)[C@@H](O)[C@@H]1O (stereo partly drawn) :: 0.0
OC[C@H]1O[C@H](OC[C@H]2OC(O)[C@H](O)[C@@H](O)[C@@H]2O)[C@H](O)[C@@H](O)[C@@H]1O (stereo partly drawn) :: 0.5

Shifting focus to the compound that follows.
For record OC[C@H]1O[C@H](O[C@H]2[C@H](O)[C@@H](O)[C@@H](O[C@H]3[C@H](O)[C@@H](O)[C@@H](O[C@H]4[C@H](O)[C@@H](O)C(O)O[C@@H]4CO)O[C@@H]3CO)O[C@@H]2CO)[C@H](O)[C@@H](O)[C@@H]1O (stereo partly drawn) the listed Sugar composition of reaction mixture, substrate Mlatose is 0.0
